# Target System: HLA-A*0202 (human)
# Experimental Details: competition with 125I-labelled standard peptide 941.01 for purified HLA, gel filtration
# Recorded Conditions: scale: ratio
Readout Name: binding affinity ratio
One number for each entry.

Below, 2 binders whose answers are already recorded.
[[record]]
binder = "VVHYRKWIKDT (modifications not checked) [… (PSA, position 242, 11 amino acids)]"
observed = 0.0001

[[record]]
binder = "VTWIGAAPLIL (modifications not checked) [… (PSA, position 8, 11 amino acids)]"
observed = 0.0005


// batch mode: one binding affinity ratio value per listed entry
1. WAHCGGVL (modifications not checked) [WAHCGGVL (Kallikrein, position 47, 8 amino acids)]
2. GLPTQEPA (modifications not checked) [Kallikrein (hK2) peptide GLPTQEPA (position 140)]
3. VVKVLGLPT (modifications not checked) [… (Kallikrein, position 135, 9 amino acids)]
4. VTKFMLCA (modifications not checked) [VTKFMLCA (PSA, position 188, 8 amino acids)]
5. VVHYRKWIKDT (modifications not checked) [… (Kallikrein, position 246, 11 amino acids)]
6. VTEFMLCA (modifications not checked) [VTEFMLCA (Kallikrein, position 192, 8 amino acids)]

Data returned:
0.0003
0.0003
-0.0005
0.0002
0.0001
0.0003

All figures here come from patent US20070020327A1.
